tested_target: PD-1/PD-L1 interaction (Homo sapiens, UniProt Q9NZQ7)
Construct: Tag1 or Tag2 (undisclosed kit tag); purchased Cisbio
Sequence (Q9NZQ7 19-238 limits assumed): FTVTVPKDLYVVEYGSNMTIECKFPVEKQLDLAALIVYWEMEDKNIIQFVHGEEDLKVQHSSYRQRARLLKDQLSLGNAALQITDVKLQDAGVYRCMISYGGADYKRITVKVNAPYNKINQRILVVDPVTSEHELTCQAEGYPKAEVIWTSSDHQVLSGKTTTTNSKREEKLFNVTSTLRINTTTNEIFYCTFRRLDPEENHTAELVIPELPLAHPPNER
protocol: Cisbio PD-1/PD-L1 Homogeneous Time-Resolved Fluorescence (HTRF) binding assay
condition_parameters: Table 10; * n = 7, median; P1 and P2 are different isomers; read-out: Reported IC50
pIC50: −log10 of the molar value.
parameter: pIC50

Use the examples below as a reference point.
{"smiles_data": "COc1cc(C(=O)N2CCN(Cc3nsc(NC[C@@H]4C[C@@H](O)CN4[C@@H](C)c4ccc(Br)cc4)n3)CC2)cc(OC)c1OC", "pIC50": 7.36}
{"smiles_data": "O=C(c1ccc(Cl)cc1)N1CCN(Cc2nsc(NC[C@@H]3CCCN3Cc3ccc(Br)cc3)n2)CC1", "pIC50": 5.99}

(I) COc1cc(C(=O)N2CCN(Cc3nsc(NC[C@@H]4CCCN4Cc4ccc(C(F)F)cc4)n3)CC2)cc(OC)c1OC
(II) COc1cc(C(=O)N2CCN(Cc3nccc(NC[C@@H]4CCCN4Cc4ccc(Br)cc4)n3)CC2)cc(OC)c1OC
## Task Pick one: I or II . Which one has the lower reported pIC50? Return value: the label identifying the chosen record.
## Result II

From: patent US20230219942A1
